# Tested on: NCI-H460 lung
# experimental protocol: NCI tumour cell line growth inhibition, 48 h
Listed here: items and their measured TGI.

Use these answered entries as a reference point.
compound	TGI
O=S1(=O)CS(=O)(=O)OCCCO1	> 100 µM
[C-]#[O+].[Cl][Sn]([Cl])[Cl].[Cl][Sn]([Cl])[Cl].[Pt].c1ccncc1	> 100 µM

Now let's try a different one.
Tell me the measured TGI of `CN(C)CCCNc1nnc(NCCCN(C)C)c2c(=O)c3sccc3[nH]c12` , please.
20.7 µM

----------
Listed next: entries and their corresponding TGI.
# Tested on: BT-549 breast
# experimental protocol: NCI tumour cell line growth inhibition, 48 h

CN1c2ccccc2S(=O)(=O)n2c(COc3ccc(Cl)cc3)nnc21 > 100 µM
O=C(OCC12CC3CC(CC(C3)C1)C2)c1ccc(NCc2cc(O)ccc2O)cc1 1.25 µM
CC(=O)Nc1cc2c(cc1O)CC[C@@H]1[C@@H]2CC[C@]2(C)[C@@H](O)CC[C@@H]12 86.3 µM

Kindly state the measured TGI obtained for `COc1ccc(-c2cc(/C=C3\C(=O)Nc4ccc(OC)cc43)[nH]n2)cc1` with BT-549 breast.
> 100 µM

Please state recorded TGI (tested on BT-549 breast) of `CCOC(=O)c1cc(C(=O)c2cc(OC)cc(OC)c2)n2ncc3ccccc3c12`
> 100 µM

What measured TGI is associated with `N#Cc1c(-c2ccccc2)cc(-c2ccccc2)n(CCCCC(=O)NO)c1=O` on BT-549 breast?
16.4 µM

Identify the measured TGI of `CN1CCN(C(=S)N(C(=O)c2ccco2)c2ccccc2)CC1` for BT-549 breast.
> 100 µM

Find the measured TGI: item `O=C(CCCc1ccccn1)c1ccccc1` , target or system BT-549 breast.
> 100 µM

Missing value: TGI, BT-549 breast, entry `Cc1nc2ccccc2c(=O)n1NC(=O)c1ccccc1O` . Fill in?
> 100 µM

Could you share what TGI was measured for `COC(=O)[C@H](CC(C)C)NC(=O)NC(=O)NC(=O)CI` , tested on BT-549 breast?
17.7 µM

----------
# Tested on: SF-295 CNS
# experimental protocol: NCI tumour cell line growth inhibition, 48 h; in the data active means GI50 below about 0.43 µM; inactive means the rest
Respond using exactly one of the listed classes: active, inactive

Some solved cases for reference:
molecule	label value
COc1cc2c3c(n(C)c(=O)c2cc1OC)-c1cc2c(cc1/C3=C\CCCBr)OCO2	inactive
C=C1C(=O)O[C@@H]2C[C@@H]1CC[C@@]1(C)O[C@@H]1CC[C@@]1(C)O[C@@H]1CC[C@@]2(C)O	inactive
Cc1cc(-c2nc(-c3ccc(OC(F)(F)F)cc3)no2)nn1Cc1ccnc(N2CCN(C3CC3)CC2)c1	active
CNC(C)C(=O)N[C@H](C(=O)N1CCC[C@@H]1CN(CCc1ccccc1)C(=O)C(F)(F)F)[C@H](C)OCC#CC#CCO[C@H](C)[C@H](NC(=O)[C@H](C)NC)C(=O)N1CCC[C@H]1CN(CCc1ccccc1)C(=O)C(F)(F)F (stereo partly drawn)	inactive
CCOC(=O)c1cc(C(=O)c2cc(OC)cc(OC)c2)n2ncc3ccccc3c12	inactive

We next turn to a different molecule, shown below.
Please indicate how the test categorized COc1cccc(C2C3=C(COC3=O)N(CCO)c3cc4c(cc32)OCCO4)c1 (stereo not drawn) .
active

The values you see were collected from PubChem BioAssay (NCI).
